assay_system: T1, human ENTPD2, full length, on cells (human, UniProt Q9Y5L3 1-495)
T1 sequence: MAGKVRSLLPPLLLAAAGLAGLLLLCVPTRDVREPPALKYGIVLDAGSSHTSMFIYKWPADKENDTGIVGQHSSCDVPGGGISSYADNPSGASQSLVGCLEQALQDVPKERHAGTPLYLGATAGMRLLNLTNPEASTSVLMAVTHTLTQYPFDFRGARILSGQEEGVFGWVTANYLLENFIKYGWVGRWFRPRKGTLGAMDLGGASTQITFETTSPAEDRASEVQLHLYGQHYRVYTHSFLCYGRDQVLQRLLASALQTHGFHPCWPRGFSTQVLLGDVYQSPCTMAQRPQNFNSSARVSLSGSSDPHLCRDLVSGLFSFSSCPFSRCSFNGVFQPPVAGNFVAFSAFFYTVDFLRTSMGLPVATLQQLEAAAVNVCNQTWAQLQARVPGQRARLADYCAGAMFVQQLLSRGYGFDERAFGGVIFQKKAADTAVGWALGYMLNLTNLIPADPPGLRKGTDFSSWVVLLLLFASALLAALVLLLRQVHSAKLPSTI
protocol_description: cell-based or functional assay
endpoint_label: RKO Assay IC50 (nM)
Give just the number in nM; leave the unit off.

ANTI-HUMAN ENTPD2 MAB10 (antibody, human IgG1, lambda, V domains shown) VH: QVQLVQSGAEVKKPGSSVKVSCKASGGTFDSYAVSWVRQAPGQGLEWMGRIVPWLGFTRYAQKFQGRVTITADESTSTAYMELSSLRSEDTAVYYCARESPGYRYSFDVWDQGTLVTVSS VL: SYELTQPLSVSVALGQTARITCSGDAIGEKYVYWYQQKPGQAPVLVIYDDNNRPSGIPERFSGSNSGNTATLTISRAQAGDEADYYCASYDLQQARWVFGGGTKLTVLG: 0.2

### Prompt Given ANTI-HUMAN ENTPD2 MAB8 (antibody, human IgG1, lambda, V domains shown) VH: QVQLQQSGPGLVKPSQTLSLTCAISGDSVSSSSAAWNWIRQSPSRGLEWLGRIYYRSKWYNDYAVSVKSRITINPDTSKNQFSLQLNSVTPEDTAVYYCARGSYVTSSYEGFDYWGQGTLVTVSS VL: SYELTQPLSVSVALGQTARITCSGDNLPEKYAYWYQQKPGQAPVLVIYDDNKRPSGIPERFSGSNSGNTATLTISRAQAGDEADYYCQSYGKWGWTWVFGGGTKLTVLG , state its recorded RKO Assay IC50.
### Response 0.2

### Prompt Could you do the same for ANTI-HUMAN ENTPD2 MAB6 (antibody, human IgG1, kappa, V domains shown) VH: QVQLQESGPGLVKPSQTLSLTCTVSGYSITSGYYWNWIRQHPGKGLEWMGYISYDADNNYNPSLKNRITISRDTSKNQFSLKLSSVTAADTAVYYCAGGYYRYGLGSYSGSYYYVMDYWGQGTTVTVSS VL: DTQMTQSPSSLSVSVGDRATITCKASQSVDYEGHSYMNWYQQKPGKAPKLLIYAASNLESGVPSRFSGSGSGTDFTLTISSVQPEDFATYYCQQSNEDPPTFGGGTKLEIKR , please?
### Response 0.2
